System: Brain-Specific Receptors of Rats
METHOD_DESCRIPTION: Inhibition of the binding of 3H-benzodiazepine to brain-specific receptors of rats
Design: species or system rat (Wistar)
CONDITION_NOTES: 3H-diazepam 1.5 nM or 3H-flunitrazepam 1.0 nM; rat cortex P2 fraction, pH 7.4, 30 minutes in ice; test concentration not given
ASSAY_METRIC: % Inhibition (%)
Numeric only. Scale: %

Q: Recorded % Inhibition of "COC(=O)N(C)c1cccc(-c2ccc3nncn3n2)c1" , please.
Ans: 62

* * *

System: Brain-Specific Receptors of Rats
METHOD_DESCRIPTION: Inhibition of the binding of 3H-benzodiazepine to brain-specific receptors of rats
Parameters: species or system rat (Wistar)
CONDITION_NOTES: 3H-diazepam 1.5 nM or 3H-flunitrazepam 1.0 nM; rat cortex P2 fraction, pH 7.4, 30 minutes in ice; test concentration not given
Some molecules, each annotated with its measured % Inhibition.
Numeric only. Scale: %

[
  {
    "MOL": "CC(=O)N(C)c1cccc(-c2ccc3nnc(N)n3n2)c1",
    "% Inhibition / %": 58
  },
  {
    "MOL": "CCC(=O)N(C)c1cccc(-c2ccc3nnc(C)n3n2)c1",
    "% Inhibition / %": 89
  },
  {
    "MOL": "CCN(C(C)=O)c1cccc(-c2ccc3nnc(N)n3n2)c1",
    "% Inhibition / %": 90
  },
  {
    "MOL": "C#CCN(C(C)=O)c1cccc(-c2ccc3nncn3n2)c1",
    "% Inhibition / %": 49
  }
]

Q: Recorded % Inhibition of "CCN(C(C)=O)c1cccc(-c2ccc3nncn3n2)c1" , please.
Ans: 78

Q: Try the molecule "C#CCN(C(C)=O)c1cccc(-c2ccc3nnc(C)n3n2)c1"
Ans: 90
